Data provenance is PubChem BioAssay AID2641.

- study.target: Lysosomal alpha-glucosidase (Homo sapiens) (UniProt P10253)
- protocol.notes: qHTS Assay for Inhibitors of Human alpha-Glucosidase as a Potential Chaperone Treatment of Pompe Disease: Stabilizers of Alpha-Glucosidase Under Thermal Denaturation Conditions
- experimental.conditions: Recombinant GAA thermal denaturation, residual activity over time, stronger effect = higher value; at 0.31 µM unless noted
experimental.endpoint: residual activity vs control after 60 min heating (%)

| query.smiles | units.text | value |
| --- | --- | --- |
| O=Cc1ccc(N2CCN(S(=O)(=O)c3ccc4c(c3)CC(=O)N4)CC2)cc1 | % | 299 |
| N#Cc1ccc(N2CCN(S(=O)(=O)c3ccc4c(c3)CC(=O)N4)CC2)cc1 | % | 480 |
| O=C1Cc2cc(S(=O)(=O)N3CCN(c4ccc(C(=O)O)cc4)CC3)ccc2N1 | % | 302 |
| O=C1Cc2cc(S(=O)(=O)N3CCN(c4ccc(O)cc4)CC3)ccc2N1 | % | 170 |
| CC(=O)c1ccc(N2CCN(S(=O)(=O)c3cc4c(cc3Cl)NC(=O)C4)CC2)cc1 | % | 675 |
